- Target system: T1, cynomolgus monkey DLL4 extracellular domain (cynomolgus monkey)
- T1 construct: extracellular domain; also called cynoDLL4 ECD; Cyno DLL4
- Test method notes: SPR (Biacore)
Quantity: pKd
Note: pKd values are expressed as the negative base-10 logarithm of concentration in M.

Past entries and their recorded results:
Problem: Give the measured pKd of h1A11.F5 (antibody, V domains shown, also called h1A11.F5 VH / h1A11.E12 VL) VH: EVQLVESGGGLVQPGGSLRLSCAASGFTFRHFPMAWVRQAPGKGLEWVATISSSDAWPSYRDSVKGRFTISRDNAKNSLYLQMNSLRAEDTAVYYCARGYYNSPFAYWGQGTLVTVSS VL: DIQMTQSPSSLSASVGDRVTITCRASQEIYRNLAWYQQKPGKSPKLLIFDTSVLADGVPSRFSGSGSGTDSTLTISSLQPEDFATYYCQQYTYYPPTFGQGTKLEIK .
Solution: 9.77

Problem: Give the measured pKd of h1A11.E12 (antibody, V domains shown, also called h1A11.E12 VH / h1A11.E12 VL) VH: EVQLVESGGGLVQPGGSLRLSCAASGFTFRYFPMAWVRQAPGKGLEWVATISGSDEWPNYRDSVKGRFTISRDNAKNSLYLQMNSLRAEDTAVYYCARGYYNSPFAFWGQGTLVTVSS VL: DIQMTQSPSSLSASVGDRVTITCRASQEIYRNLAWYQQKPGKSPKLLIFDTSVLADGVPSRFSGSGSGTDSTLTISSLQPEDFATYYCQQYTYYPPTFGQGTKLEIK .
Solution: 9.55

Field: next binder
Problem: Give the measured pKd of h1A11.A11 (antibody, V domains shown, also called h1A11.A11 VH / h1A11VL.1) VH: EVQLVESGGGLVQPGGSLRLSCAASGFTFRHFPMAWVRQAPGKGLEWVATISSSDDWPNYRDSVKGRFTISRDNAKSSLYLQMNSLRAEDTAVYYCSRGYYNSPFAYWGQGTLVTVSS VL: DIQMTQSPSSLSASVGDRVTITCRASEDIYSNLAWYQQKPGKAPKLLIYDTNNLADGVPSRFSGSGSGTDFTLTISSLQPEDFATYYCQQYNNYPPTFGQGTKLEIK .
Solution: 9.70
